targetOfAssay: recombinant human IRAP (Homo sapiens, UniProt Q9UIQ6)
Sequence (Q9UIQ6 whole entry): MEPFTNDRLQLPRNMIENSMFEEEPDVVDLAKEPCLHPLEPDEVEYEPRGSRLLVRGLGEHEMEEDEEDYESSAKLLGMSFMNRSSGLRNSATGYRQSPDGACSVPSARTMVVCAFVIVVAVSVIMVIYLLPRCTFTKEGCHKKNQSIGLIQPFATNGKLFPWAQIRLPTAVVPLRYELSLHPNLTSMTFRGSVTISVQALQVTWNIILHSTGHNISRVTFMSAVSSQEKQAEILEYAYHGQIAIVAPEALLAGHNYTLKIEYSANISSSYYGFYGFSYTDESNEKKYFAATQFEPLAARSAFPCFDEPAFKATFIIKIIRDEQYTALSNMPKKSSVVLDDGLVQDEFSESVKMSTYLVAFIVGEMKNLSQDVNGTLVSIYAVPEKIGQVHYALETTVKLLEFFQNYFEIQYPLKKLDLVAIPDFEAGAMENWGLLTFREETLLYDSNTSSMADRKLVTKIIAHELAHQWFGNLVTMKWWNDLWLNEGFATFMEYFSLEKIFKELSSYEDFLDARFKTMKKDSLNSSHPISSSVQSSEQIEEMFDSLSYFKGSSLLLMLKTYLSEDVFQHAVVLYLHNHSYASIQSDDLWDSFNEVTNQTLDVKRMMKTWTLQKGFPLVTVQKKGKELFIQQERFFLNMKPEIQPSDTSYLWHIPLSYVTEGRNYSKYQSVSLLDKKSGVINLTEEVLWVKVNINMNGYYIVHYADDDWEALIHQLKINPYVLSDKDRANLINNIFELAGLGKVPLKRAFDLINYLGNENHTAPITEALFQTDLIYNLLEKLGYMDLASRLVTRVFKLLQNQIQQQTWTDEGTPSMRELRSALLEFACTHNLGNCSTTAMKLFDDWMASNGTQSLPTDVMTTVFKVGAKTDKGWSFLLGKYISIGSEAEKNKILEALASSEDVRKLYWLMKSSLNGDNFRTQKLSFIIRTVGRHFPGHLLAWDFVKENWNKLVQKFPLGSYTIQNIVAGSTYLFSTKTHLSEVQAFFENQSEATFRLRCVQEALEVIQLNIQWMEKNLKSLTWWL
Assay type: biochemical
runParameters: HEK293
measurementName: IRAP inhibition (in words)

>>> print(df.to_string())
                                smilesentry               reported
0  Cc1ccc(S(=O)(=O)Nc2cccc(-c3nnn[nH]3)c2)cc1C  submicromolar potency
1  O=S(=O)(Nc1cccc(-c2nnn[nH]2)c1)c1cc(Cl)c(Cl)cc1Cl  submicromolar potency

Origin of measurements: paper PMC6045421
